Reference source: PubChem BioAssay AID686978

- experimentalProtocol: qHTS for Inhibitors of human tyrosyl-DNA phosphodiesterase 1 (TDP1): qHTS in cells in absence of CPT; also: nearly all actives have a fitted effect of over 55% in size
- experimentalSetup: DT40 Tdp1-/- hTDP1 cells, no CPT, ATP luminescence, 48 h
Out of some 420,000 compounds screened, about 64,000 (15%) were called active. Inconclusive results (about 27%) are left out. Calls follow the shape of the dose curve; as a rule, active = well fitted inhibition curve with a large enough effect; inconclusive = small, poorly fitted or top-dose-only effect; inactive = flat fitted curve, though single readings scatter. The list is a sample of the results.
Could you please pick one outcome from this set? class 1 = active, class 0 = inactive

Query: # fetch the recorded call for `COc1ccc2nc(Nc3nc(-c4cc5ccccc5oc4=O)cs3)sc2c1` here
Response: class 1

Query: # fetch the recorded call for CC1CC(C)(C)n2c(O)c(N=NC(N)=S)c3cccc1c32 (stereo not drawn) here
Response: class 0

Query: # fetch the recorded call for CC(NC(=O)C1CCC(CNc2c(N3CCOCC3)c(=O)c2=O)CC1)c1ccccc1 (stereo not drawn) here
Response: class 0

Query: # fetch the recorded call for `Cc1ccc(C(=O)NNc2ncnc3ccccc23)cc1` here
Response: class 0

Query: # fetch the recorded call for COc1ccccc1CCCNC(=O)C1CCC(=O)N(CCN2CCOCC2)C1 (stereo not drawn) here
Response: class 0

Query: # fetch the recorded call for `O=C(O)CN(Cc1ccco1)S(=O)(=O)c1ccccc1` here
Response: class 0

Query: # fetch the recorded call for `COc1ccc2nc(Nc3nc4cc5c(cc4s3)OCCO5)sc2c1` here
Response: class 0

Query: # fetch the recorded call for `O=C(O)c1ccn(COc2ccc(Br)cc2)n1` here
Response: class 0

Query: # fetch the recorded call for `Brc1nc2ncnc(NCc3ccco3)c2[nH]1` here
Response: class 0

Query: # fetch the recorded call for CC(Nc1nc(N2CCCC2)nc2ccccc12)c1ccccc1 (stereo not drawn) here
Response: class 1

Query: # fetch the recorded call for `CC(C)c1ccc(NS(=O)(=O)c2ccc3[nH]cc(C(=O)NC4CCCC4)c(=O)c3c2)cc1` here
Response: class 0

Query: # fetch the recorded call for `S=c1[nH]c(-c2cccs2)cn1-c1ccccc1` here
Response: class 0

Query: # fetch the recorded call for `CC(=O)Nc1ccc(OC(=O)COc2ccc(Br)cc2)cc1` here
Response: class 0

Query: # fetch the recorded call for CCCCC(NS(=O)(=O)c1ccc(C)cc1)C(=O)Oc1ccc2c3c(c(=O)oc2c1)CCC3 (stereo not drawn) here
Response: class 0

Query: # fetch the recorded call for `CCNc1nc(-c2cc3ccccc3o2)cs1` here
Response: class 0

Query: # fetch the recorded call for Cn1cccc1C(C#N)c1ccccc1C#N (stereo not drawn) here
Response: class 0

Query: # fetch the recorded call for `COc1ccc(CNc2ncnc3ccccc23)cc1` here
Response: class 1

Query: # fetch the recorded call for `O=c1oc2ccccc2cc1-c1cn(-c2ccccc2)c(=S)[nH]1` here
Response: class 1

Query: # fetch the recorded call for `Cc1cc(N2CCCC2=O)cc(C)c1S(N)(=O)=O` here
Response: class 0

Query: # fetch the recorded call for `Cc1ccccc1-c1nc(N(C)Cc2ccco2)c2ccccc2n1` here
Response: class 0

Query: # fetch the recorded call for `CCC(=O)OCCNc1nc(-c2ccccc2)nc2ccccc12` here
Response: class 0

Query: # fetch the recorded call for c1ccc2c(NC3C4CC5CC(C4)CC3C5)nc(N3CCOCC3)nc2c1 (stereo not drawn) here
Response: class 1

Query: # fetch the recorded call for O=C(CSC1=Nc2ccccc2C2=NC(c3ccccc3)C(=O)N12)NCC1CCCO1 (stereo not drawn) here
Response: class 0

Query: # fetch the recorded call for O=c1cc(CO)oc(C(Nc2cccc([N+](=O)[O-])c2)c2ccccn2)c1O (stereo not drawn) here
Response: class 0

Query: # fetch the recorded call for `FC(F)(F)c1cc(-c2ccco2)nc(N2CCOCC2)n1` here
Response: class 0

Query: # fetch the recorded call for `O=C(CSc1nc2ccccc2c(=O)n1-c1ccc(F)cc1)NC1CC1` here
Response: class 0

Query: # fetch the recorded call for CC1(c2nnc(Cc3ccccc3)o2)CC(c2ccccc2F)=NO1 (stereo not drawn) here
Response: class 0

Query: # fetch the recorded call for `O=C(O)c1ccc2c(c1)C(=O)N(NC(=O)c1ccc(O)cc1)C2=O` here
Response: class 0

Query: # fetch the recorded call for `O=C(/C=C/c1ccco1)NC(=S)Nc1ccccc1Br` here
Response: class 0

Query: # fetch the recorded call for `Cc1cc(/C=C2\SC(=O)N(C)C2=O)c(C)n1-c1cccc(C(=O)O)c1` here
Response: class 0

Query: # fetch the recorded call for NNC(=O)CNC(c1ccccc1)c1cc(Cl)ccc1NC(=O)c1ccccc1 (stereo not drawn) here
Response: class 0

Query: # fetch the recorded call for `CC(=O)N1CCN(S(=O)(=O)c2c(F)cc(F)c(Cl)c2F)CC1` here
Response: class 0

Query: # fetch the recorded call for `CS(=O)(=O)c1ccc2nc(NC(=O)CN3CCCCCC3)sc2c1` here
Response: class 0

Query: # fetch the recorded call for `O=C(COC(=O)CCc1nc2ccccc2c(=O)[nH]1)Nc1ccc(N2CCOCC2)cc1` here
Response: class 0

Query: # fetch the recorded call for Cc1nn(C(C)CC(=O)O)c(C)c1C (stereo not drawn) here
Response: class 0

Query: # fetch the recorded call for `CCOc1ccccc1NC(=O)c1cccnc1` here
Response: class 0

Query: # fetch the recorded call for COc1ccc2cc(-c3nc(Cl)c4c5c(sc4n3)CC(C)CC5)c(=O)oc2c1 (stereo not drawn) here
Response: class 0

Query: # fetch the recorded call for `Cc1[nH]nc(SCC(=O)NCC(C)C)c1[N+](=O)[O-]` here
Response: class 0

Query: # fetch the recorded call for `CCCCN(C)c1ccc([N+](=O)[O-])cc1` here
Response: class 0

Query: # fetch the recorded call for `O=c1oc2ccccc2c(=O)c2ccccc12` here
Response: class 0

Query: # fetch the recorded call for `CCc1noc(C)c1C(=O)N1CCCSC1=Nc1ccccc1OC` here
Response: class 0

Query: # fetch the recorded call for `O=C(COc1ncnc2ccccc12)NC(=O)NCc1ccccc1` here
Response: class 0

Query: # fetch the recorded call for `CCNc1c(NS(=O)(=O)c2ccc(C3CCCCC3)cc2)c(=O)oc2ccccc12` here
Response: class 1

Query: # fetch the recorded call for `CCOc1ccc(S(=O)(=O)NCCC(=O)NCC(C)(C)N2CCOCC2)cc1` here
Response: class 0

Query: # fetch the recorded call for `O=C(COC(=O)c1ccccc1SCC(=O)NC1CCCCC1)NC1CCCCC1` here
Response: class 0

Query: # fetch the recorded call for `O=C(O)CSc1nccc2ccccc12` here
Response: class 0

Query: # fetch the recorded call for `CCOCCCn1c(NN)nc2ccccc2c1=O` here
Response: class 0

Query: # fetch the recorded call for `COc1ccc(CNc2nccs2)cc1` here
Response: class 0
